- assay comment: Stability in mouse microsomes assessed as half life
- Type: ADME, Microsome
measured parameter: half-life (s)
Write the number in s without appending the unit.

Form field half-life, entry O=C(/C=C/c1cccnc1)NCCCCC1CCN(C(=O)c2cccc(N(CCCl)CCCl)c2)CC1 : 56.1

###

Measured IC50 accompanies every entry in the list below.
- Tested on: LN-18
- assay comment: Antitumor activity against human LN-18 cells assessed as inhibition of cell viability incubated for 72 hrs by SRB assay
- Format: functional, cell-based
- stated conditions: LN-18, 72 h
# value in nM; strip the unit string

Answered cases to consult:
O=C(/C=C/c1cccnc1)NCCCCC1CCN(C(=O)c2ccccc2N(CCCl)CCCl)CC1 : 31.3
O=C(/C=C/c1cccnc1)NCCCCC1CCN(C(=O)c2ccccc2)CC1 : 33.6

We next turn to a different molecule, shown below.
Recorded result, O=C(/C=C/c1cccnc1)NCCCCC1CCN(C(=O)c2cccc(N(CCCl)CCCl)c2)CC1 , IC50: 0.7

###

- assay system: Nicotinamide phosphoribosyltransferase (Homo sapiens, UniProt P43490)
- Sequence (P43490 whole entry): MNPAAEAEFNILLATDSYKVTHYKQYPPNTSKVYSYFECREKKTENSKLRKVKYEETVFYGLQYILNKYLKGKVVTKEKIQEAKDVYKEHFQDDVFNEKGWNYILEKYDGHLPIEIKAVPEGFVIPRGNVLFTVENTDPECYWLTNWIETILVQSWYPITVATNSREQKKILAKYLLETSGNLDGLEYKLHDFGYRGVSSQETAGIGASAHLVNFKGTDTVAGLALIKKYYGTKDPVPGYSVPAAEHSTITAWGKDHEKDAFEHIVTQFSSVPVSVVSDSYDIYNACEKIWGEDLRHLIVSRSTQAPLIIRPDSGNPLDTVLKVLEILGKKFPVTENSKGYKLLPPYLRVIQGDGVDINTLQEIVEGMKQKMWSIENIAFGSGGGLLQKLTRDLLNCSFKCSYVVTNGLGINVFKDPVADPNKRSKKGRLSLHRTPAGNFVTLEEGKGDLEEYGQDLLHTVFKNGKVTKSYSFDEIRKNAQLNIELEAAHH
- assay comment: Inhibition of recombinant human NAMPT preincubated for 5 mins followed by NAM addition measured for 15 mins by fluorescence based assay
measured parameter: pIC50
Lab note: report pIC50 as minus log10 of the concentration in molar units, number only.

O=C(/C=C/c1cccnc1)OCCCCC1CCN(C(=O)c2ccccc2N(CCCl)CCCl)CC1 : 8.89
O=C(/C=C/c1cccnc1)NCCCCC1CCN(C(=O)c2ccc(N(CCCl)CCCl)cc2)CC1 : 8.96
O=C(/C=C/c1cccnc1)NCCCCC1CCN(C(=O)c2cccc(N(CCCl)CCCl)c2)CC1 : 9.82
O=C(/C=C/c1cccnc1)OCCCCC1CCN(C(=O)c2cccc(N(CCCl)CCCl)c2)CC1 : 8.41
O=C(/C=C/c1cccnc1)NCCCCC1CCN(C(=O)c2ccccc2N(CCCl)CCCl)CC1 : 9.80

Continue with the compound presented below.
For the compound O=C(/C=C/c1cccnc1)OCCCCC1CCN(C(=O)c2ccc(N(CCCl)CCCl)cc2)CC1 , the measured pIC50 on Nicotinamide phosphoribosyltransferase (Homo sapiens, UniProt P43490) was 7.43
